System: K4 kissing-loop RNA reporter;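 also: bound reporter read as fluorescence of individual clusters on recovered sequencing chips by microscopy, with normalized cluster intensities fitted with a binding model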
Test: apparent KD of K4 kissing-loop reporter; higher = weaker reporter binding
Details: Eterna round: R107; input ligand: arginine 13.2 mM
metric: apparent KD of K4 kissing-loop reporter
A complete answer gives the number followed by the unit.

Prompt: Which apparent KD of K4 kissing-loop reporter is reported for this sequence? UCCUGCAAUCGGCCACGAAAGUGGAUGGAUACCAGAGUCGAAAGACUCCCUUGGCAGCCAGUGAUGUUGGAAGCAGGUAAAUAAA
Response: 0.499 µM

Prompt: Which apparent KD of K4 kissing-loop reporter is reported for this sequence? ACGCUAGCUACCGAAAGGUAGCUAGCGAGUGAGGAUAUGUGGAAACACAGAAGGCACAGCGCAGUGAUGUUGUGCGGCGAAAGCC [whbob_SS_FMNA__2th166]
Response: 0.275 µM

Prompt: Which apparent KD of K4 kissing-loop reporter is reported for this sequence? GCCUAGCAGGGAAGGAGCGGCAUAGGCAUAGAUAAUAUGCAGUUAGUGAUGUUAACACUAUGCCAGGUAGGUCGCCCUGCUAGGC [KL-SSArg B8]
Response: 0.0954 µM

Prompt: Which apparent KD of K4 kissing-loop reporter is reported for this sequence? UCUUGUUCAUAGUGAUGUUAUGAGCUUAGAAAGGAUAUGAUCAACAUCAGAAGGUUCAAGGAUUCCCGACUCCAACUUCGGUUUC [theeternabot_sameState_KL_FMN_A_43]
Response: 0.27 µM

Prompt: Which apparent KD of K4 kissing-loop reporter is reported for this sequence? CCCUCACGAGUGAUGUUCGUAGGGUACAGUCAGGAUAUCAUGCGGUUGAGAAGGGACAGAGAGGGCGGCGGCGGGUUGCUCAUCG [Rabele]
Response: 0.125 µM

Prompt: Which apparent KD of K4 kissing-loop reporter is reported for this sequence? CCGAAGAACCAGUGAUGUUGGUUGACUAGACAGGAUAUGAGCAACAUCAGAAGGGUCUGGCUUCGGGAGUGGGCCGCGCUGACCU [Artilati]
Response: 0.193 µM

Prompt: Which apparent KD of K4 kissing-loop reporter is reported for this sequence? AAUUCAGCUAGUGAUGUUAGCGUAGAGUGCAAGGAUAUCCCUGUCAGGAGAAGGUGCGUAGAACGUUUGCCAUCAGAUUGUCCCA [theeternabot_exclusion_KL_FMN_A_48]
Response: 0.0972 µM

Prompt: Which apparent KD of K4 kissing-loop reporter is reported for this sequence? GGAUCCACCAGUGAUGUUGGAGAAAACUCCAAGGAUAUGACGAAAGUCAGAAGGUGGUAGACUGGACAAAGUCCGGUAGGAUCCA [FmnA10 A78]
Response: 0.0585 µM

Prompt: Which apparent KD of K4 kissing-loop reporter is reported for this sequence? GGUGCUGUCUGUGCCGCCCUCCUCGUUCCUCGAGGACCGGUACGGCCGCCACUCGAGUGAUGUUUGGGUAGCGAUCCCUGCUAGC [Bdazzled - #16 Exc. Tryptophan A]
Response: 0.719 µM

Prompt: Which apparent KD of K4 kissing-loop reporter is reported for this sequence? CAUAGACAAGUGAUGUUUGUCAUAACCGAAGGAGCGUCUUUAAAGACAGGUAGGUCGCGGAUUAGUUAAGUUAUGAUUCUUUAUG [#19 K4 Arginine A Same State]
Response: 0.492 µM

Prompt: Which apparent KD of K4 kissing-loop reporter is reported for this sequence? CCGGGCGGCUGAAGGAGCGGGCGGGCCCGAGUGAUGUUCGGGUGGGCCGUGAGGUCCGGUGCCCAGGUAGGUCGCGGUUCCGCCC [#2 Same State - Arginine B Attempt #10 (HarryS)]
Response: 0.169 µM

Prompt: Which apparent KD of K4 kissing-loop reporter is reported for this sequence? AAAAUAAACCAGUGAUGUUGGUGUCCAGAUACCAGCGACAAAAGUCGCCCUUGGCAGCUGUGGACGUACAAAAUAAGUACGUCCU [MatMod 1 - Jieux - Same State - Theophylline A]
Response: 0.271 µM

Prompt: Which apparent KD of K4 kissing-loop reporter is reported for this sequence? UGUAUGUGAUUUGAUACCAGACCAGCUGAUGGAUCACGAGUGAUGUUCGUGUUGGUUUGGGUCCCUUGGCAGCAAAUCGCAUACU [KL-SSTheoB14]
Response: 0.282 µM

Prompt: Which apparent KD of K4 kissing-loop reporter is reported for this sequence? GAACCAGAGGUUGCUGCGGGUUCCAGAGAUACCAGCCGUAUUGAAGGCCCUUGGCAGCUCGAGUGAUGUUCGAGCCGCCUCUGGC [Antius]
Response: 0.0968 µM

Prompt: Which apparent KD of K4 kissing-loop reporter is reported for this sequence? GCAGUGAUGUUGCGGAUGUACAGUGGCGUGCGAGGACCGGUACGGCCGCCACUCGUACAGCACAAGCUAAUACAUCGAUAGGUGA [whbob_SS_Tryp_A_m2]
Response: 0.287 µM

Prompt: Which apparent KD of K4 kissing-loop reporter is reported for this sequence? AAGGCCACGAGAAGGAGCGUGUUGUGGAGUGAUGUUCCAUUGUAGACCUAAGGUCUACAAGCACAGGUAGGUCGCUCGUGGUCAA [Omei KL Arginine B SS A v5]
Response: 0.12 µM

Prompt: Which apparent KD of K4 kissing-loop reporter is reported for this sequence? GGUAGCAUGGCGGCCGCCACUGUCUAGUGAUGUUAGACCCGACGUGGAUUCAAGACAGUCGGAAACAGGACCGGGCCAUGCUACC
Response: 0.229 µM

Prompt: Which apparent KD of K4 kissing-loop reporter is reported for this sequence? CCGAUGGGUACAGGAUAUGCCAGUGAUGUUGGUUUAGAUGGACCCAUAAGGAGACACCAGACGGAGGCAGAAGGGUAGCAAGGGA [Isonanti]
Response: 0.11 µM

Prompt: Which apparent KD of K4 kissing-loop reporter is reported for this sequence? GGGAAGUACGGAGGAUAUGCACUGAGGAGGAGAAUAUAGUGAUGUUAUAUAAGAGGAAGGAGAAGAGUAGAAGGCCGUGGAAAGG [SSFMNB.C]
Response: 0.115 µM

Prompt: Which apparent KD of K4 kissing-loop reporter is reported for this sequence? UUAGAGAUCUCAGGAUAUCAGUGAUGUUGGUGUUAAGAUCUGAGAUAGAAUUCUAUCUCAGAUCAAUGAGAAGGGAGAUCUCAUU [AK3 Exc FMN B]
Response: 0.132 µM

Prompt: Which apparent KD of K4 kissing-loop reporter is reported for this sequence? GGGCCUCUGGCUGAUACCAGUGAUGCAGGGUCCGAGACAGGGAGUGAUGUUCCCUGCAGCCACCCUUGGCAGCAGUUUAAGUUUG [Exclusion Theophylline B GF 19]
Response: 0.124 µM

Prompt: Which apparent KD of K4 kissing-loop reporter is reported for this sequence? AUUCGAUCAGUGAUGUUGAUCAAAGUCGAAGGAGCGGACGAAAGUCCAGGUAGGUCGCGACUACAAGGUGUUAAGACACCUCGAA [Spvincent t9 mod #OpenEnded]
Response: 0.211 µM

Prompt: Which apparent KD of K4 kissing-loop reporter is reported for this sequence? GCUCGGGAGUGAUGUUCCAAGUGGUGUUAACGAGGACCGGUACGGCCGCCACUCGAUACGGCCGGGCCGUAGGAUAAACUGGAGC [Same State - Tryptophan A (Freestyle 13)]
Response: 0.123 µM
